assay target: Retinaldehyde dehydrogenase 3 (Homo sapiens) (UniProt P47895)
measurement notes: qHTS for Inhibitors of the Aldehyde Dehydrogenase Family (ALDH1A3) Confirmatory screens (AID 2061311); also: nearly all actives have a fitted effect of over 60% in size
test parameters: ALDH inhibition qHTS; series mostly up to 46 µM
Inconclusive results are not listed. Active and inactive are the calls of the source. Calls follow the shape of the dose curve; as a rule, active = well fitted inhibition curve with a large enough effect; inconclusive = small, poorly fitted or top-dose-only effect; inactive = no such curve, though single readings can be large or run the other way.
One label from this list, please: t for active, f for inactive

molecule: Cc1ccnc(NC(=S)N[C@@H]2CCN(c3cccc(C(F)(F)F)c3)C2)c1
qualitative label: f
--
molecule: Cc1cccc(-c2cccc(CN)c2)c1
qualitative label: f
--
molecule: CCc1cccc(C)c1NC(=O)CSc1nc2ccncc2[nH]1
qualitative label: f
--
molecule: COc1ccc(C2Nc3ccccc3C(=O)N2Cc2ccc(-c3ccccc3)cc2)cc1COc1ccc(NC(C)=O)cc1 (stereo not given)
qualitative label: t
--
molecule: C=C1CN(Cc2ccc(C(=O)Nc3ccccc3N)cc2)C(=O)c2ccccc21
qualitative label: f

Prompt line: In this assay, the call recorded for `N#Cc1nc(Nc2cccc([N+](=O)[O-])c2)nc(NC2CCCC2)n1` was what?
Response line: t

Prompt line: // param item: `Cc1ccc(S(=O)(=O)Nc2cc(S(=O)(=O)c3ccc(C)cc3)c(O)c3cccnc23)cc1` ; yields the recorded call
Response line: t

Prompt line: What did the test return for `CCOC(=O)C1CCN(c2ncc(-c3ccc4c(c3)OCCCO4)s2)CC1` ?
Response line: t

Prompt line: For this molecule, state the assay outcome: `O=C(Nc1cccc2nn(-c3ccc(F)cc3)cc12)c1ccccn1`
Response line: f

Prompt line: Hi, sorry to bother you, what did the test record for `COc1ccc(-c2nc(CCNC(=O)c3c(F)cccc3Cl)cs2)cc1` ?
Response line: f

Each recorded value in this set is attributed to PubChem BioAssay (NCATS).
